Tested on: P. aeruginosa PAK mexAB-oprM +EDDHA growth, OD600, 28 h
EXPERIMENTAL_DETAILS: efflux-deficient P. aeruginosa growth delay, iron chelation, dose response, PAK mexAB-OprM pump mutant, OD600, dry powder (AID 624105)
The source made the active and inactive calls.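 The calls were made as follows: active = growth reading drops at least 35% at both 405 and 600 nm in duplicate, reached below 10 µM; inactive = the rest, including effects in the opposite direction.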
Classes used: active, inactive

{"columns": ["COMPOUND", "ASSIGNED_CLASS"],
 "data": [
  ["N#CC(c1ccc(F)cc1)c1cccc(C(F)(F)F)n1 (centres undefined)", "active"],
  ["N#CC(c1ccc(Cl)cc1)c1cccc(C(F)(F)F)n1 (centres undefined)", "active"],
  ["N#Cc1cccc(C(C#N)c2ccc(F)cc2)n1 (centres undefined)", "active"],
  ["N#CC(c1ccc(Cl)cc1)N1CCCC1 (centres undefined)", "inactive"],
  ["N#CC(c1ccc(F)cc1)c1cccc(Cl)n1 (centres undefined)", "active"],
  ["N#CC(c1ccc(Cl)cc1)c1cccc(Cl)n1 (centres undefined)", "active"],
  ["N#CC(c1ccc(Cl)cc1)c1ncccc1Cl (centres undefined)", "active"],
  ["N#CC(c1cccc(Cl)n1)c1ccc(Cl)cc1F (centres undefined)", "active"],
  ["N#CC(c1ccc(Cl)cc1)c1ccccn1 (centres undefined)", "active"],
  ["CN(C)CCCC(C#N)c1ccc(F)cc1 (centres undefined)", "active"],
  ["COCCC(C#N)c1ccc(F)cc1 (centres undefined)", "active"],
  ["N#CC(c1cccc(C(F)(F)F)n1)c1ccc(Cl)cc1F (centres undefined)", "active"],
  ["COCCOCCC(C#N)c1ccc(F)cc1 (centres undefined)", "active"],
  ["CCCCC(C#N)c1ccc(F)cn1 (centres undefined)", "active"]
]}
